# assay remarks: recombinant UMI read abundance after kanamycin selection (control-corrected) (log10(CPM+1)); higher = more efficient recombination; extreme values may be limits of the assay; sequences stand for … in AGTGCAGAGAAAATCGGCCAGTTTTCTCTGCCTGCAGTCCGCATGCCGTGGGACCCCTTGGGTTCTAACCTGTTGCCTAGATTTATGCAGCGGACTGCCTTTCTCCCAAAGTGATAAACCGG…AGGTTGGTTTCACT; site = the 11-nt donor;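 also: IS621 bridge recombinase in Escherichia coli cells against a fixed T5 target plasmid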
For each of the sequences below, state its recombinant UMI read abundance (log10).
Reply: number alone, nothing else.

Query: Quickly give me recorded recombinant UMI read abundance (log10) for TCTGCGGCATGGACCGGTTTTCCCGGTAATCCGTATTTGCT (site TGTGCGGCTAG)
Response: 0.0168

Query: Recall and state the measured recombinant UMI read abundance (log10) for ACTAGTGCATGGACCGGTTTTCCCGGTAATCCGTATTTGGT (site ACTATTGCTAC) .
Response: 0.975

Query: Consider the sequence GCAGATTCATGGACCGGTTTTCCCGGTAATCCGTATTTGTT (site GAAGATTCTAA) and give its recorded recombinant UMI read abundance (log10).
Response: 0

Query: Assign recombinant UMI read abundance (log10) to the following record: TTTGCGGCATGGACCGGTTTTCCCGGTAATCCGTATTTGCG (site TTTGCGGCTAG)
Response: 0.00371

Query: Quickly give me recorded recombinant UMI read abundance (log10) for ATGCAGGCATGGACCGGTTTTCCCGGTAATCCGTATTTGGC (site ATGCAGGCTGC)
Response: 2.77

Query: For CAGTCGACATGGACCGGTTTTCCCGGTAATCCGTATTTGGG (site CAGTCGCCTCC) , write its recombinant UMI read abundance (log10).
Response: 0.0239

Query: Retrieve recombinant UMI read abundance (log10) measured for CTACTGACATGGACCGGTTTTCCCGGTAATCCGTATTTGGA (site CTACTGACTTC) and print it.
Response: 0.475

Query: Consider the sequence AAACATCCATGGACCGGTTTTCCCGGTAATCCGTATTTGAC (site AAACATCCTGT) and give its recorded recombinant UMI read abundance (log10).
Response: 1.26

Query: Please supply the value of reported recombinant UMI read abundance (log10) for the item ACGTTAGCATGGACCGGTTTTCCCGGTAATCCGTATTTGTG (site CCGTTAGCTCA)
Response: 0.742

Query: Read the entry GGCCACCCATGGACCGGTTTTCCCGGTAATCCGTATTTGTT (site GGCCAACCTAA) and write its reported recombinant UMI read abundance (log10).
Response: 0.0287

Query: Tell me measured recombinant UMI read abundance (log10) for CTAGTATCATGGACCGGTTTTCCCGGTAATCCGTATTTGTC (site CTAGTATCTGA) please.
Response: 3.35

Query: Note recombinant UMI read abundance (log10) for the sequence shown: TTGAATCCATGGACCGGTTTTCCCGGTAATCCGTATTTGTT (site TTGAATCCTAA)
Response: 0.901

Query: Input CGGACATCATGGACCGGTTTTCCCGGTAATCCGTATTTGCC (site CGGACATCTTG) , output reported recombinant UMI read abundance (log10).
Response: 0

Query: # return recorded recombinant UMI read abundance (log10) for input AACTATGCATGGACCGGTTTTCCCGGTAATCCGTATTTGGA (site AATTATGCTTC)
Response: 0.908
